system: SW480; assay: TCF/Wnt firefly luciferase reporter signal relative to plate median (fraction of plate median); higher = higher Wnt reporter signal; details: 5 µM; treatment time 24 h; reporter: 7TFP
Label 1 when TCF/Wnt firefly luciferase reporter signal is at or above 1; otherwise label -1.

MOLECULE	STUDY_SYSTEM	CLASS_LABEL
CC(=O)Nc1ccc(OC(=O)c2ccccc2O)cc1	SW480	-1
CC1(C)O[C@@H]2C[C@H]3[C@@H]4C[C@H](F)C5=CC(=O)C=C[C@]5(C)[C@H]4[C@@H](O)C[C@]3(C)[C@]2(C(=O)CO)O1	SW480	1
Clc1ccccc1C(c1ccccc1)(c1ccccc1)n1ccnc1	SW480	1
CC(=O)OCC(=O)[C@@]1(O)CC[C@H]2[C@@H]3CCC4=CC(=O)CC[C@]4(C)[C@H]3[C@@H](O)C[C@@]21C	SW480	1
COc1cc(/C=C/C(=O)O)ccc1O	SW480	1
CC(C)(Oc1ccc(C2CC2(Cl)Cl)cc1)C(=O)O (configuration not stated)	SW480	-1
Cc1cc(O)c(C=O)c(O)c1C(=O)O	SW480	-1

Numbers sourced from the supplement of paper PMC6522484.
